B1: Poly(rC)-binding protein 1, residues 278 to 350; numbered along this chain, Q15365 (parent)
chain: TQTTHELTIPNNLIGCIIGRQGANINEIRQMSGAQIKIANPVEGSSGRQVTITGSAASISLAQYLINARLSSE

- Variants of: B1
- procedure_summary: abundance fitness (aPCA) (normalised: wild type 0, dead -1); higher = more abundant; growth selection in yeast, the domain comes from the species named
- stated_conditions: Homo sapiens
Each record gets a class by abundance fitness: low range = under -0.2, mid range = from -0.2 up to 0.05, high range = 0.05 and over

Take a look at these entries with their results.
>  <changes>
E27K

>  <qualitative_label>
mid range

$$$$
>  <changes>
Q2T

>  <qualitative_label>
high range

$$$$
>  <changes>
Q21N

>  <qualitative_label>
high range

$$$$
>  <changes>
E6N

>  <qualitative_label>
high range

$$$$
>  <changes>
G47N

>  <qualitative_label>
mid range

$$$$
>  <changes>
I9G

>  <qualitative_label>
low range

$$$$

Continue with the variant presented below.
-- ask Which category fits this record: G19A
-- reply low range

Entry source: the Human Domainome abundance scans (Beltran et al. 2025)
